Values from patent US20130230519A1

Kd: recorded values
measuredOn: T1, mouse serum albumin (mouse, UniProt P07724 25-608)
T1 construct: mature; Bought purified serum protein; also called MSA; mouse SA
testMethodNotes: SPR (BIAcore), purified dAb
metricName: Kd (nM)

INSERT INTO measurements (binder, recordedvalue) VALUES
  ('DOM7h-14-65 (other, pDOM5 myc tag not included) VL: DIQMTQSPSSLSASVGDRVTITCRASQWIGSQLSWYQQKPGKAPKLLIMWRSALQSGVPSRFSGSGSGTDFTLTISSLQPEDFATYYCAQGLRHPKTFGQGTKVEIKW', 15.3),
  ('DOM7h-14-74 (other, pDOM5 myc tag not included) VL: DIQMTQSPSSLSASVGDRVTITCRASQWIGSQLSWYQQKPGKAPKLLIMWRSSLQSGVPSRFSGSGSGTDFTLTISSLQPEDFATYYCAQGLRHPKTYGKGTKVENKW', 23.5);
